What log10 of MFC99.5 was measured for each of the following?
- Tested on: Aspergillus versicolor
- Assay Notes: Antifungal activity against Aspergillus versicolor ATCC 11730 assessed as growth inhibition after 72 hrs at 28 degC by serial dilution method
- Format: functional
A value of 2 here means MFC99.5 of 100 in ×10⁻² umol/ml, since values are log10.

Looking up O=C1CSC(c2ccc(Br)cc2)N1c1nc(C23CC4CC(CC(C4)C2)C3)cs1 (centres undefined) , I see its log10 of MFC99.5 listed as 1.02

Reported log10 of MFC99.5 ( O=C1CSC(c2ccc(Cl)cc2)N1c1nc(C23CC4CC(CC(C4)C2)C3)cs1 (centres undefined) ) = -1.15

log10 of MFC99.5 in this record for O=C1CSC(c2ccc([N+](=O)[O-])cc2)N1c1nc(C23CC4CC(CC(C4)C2)C3)cs1 (centres undefined) : 0.05

// sample O=C1CSC(c2cccc(Cl)c2)N1c1nc(C23CC4CC(CC(C4)C2)C3)cs1 (centres undefined) , its log10 of MFC99.5 was -1.15

Per the records, this compound ( COc1ccc(C2SCC(=O)N2c2nc(C34CC5CC(CC(C5)C3)C4)cs2)cc1 (centres undefined) ) has log10 of MFC99.5 equal to -0.24

CC(=O)N1CCN(c2ccc(OCC3COC(Cn4ccnc4)(c4ccc(Cl)cc4Cl)O3)cc2)CC1 (centres undefined) yielded log10 of MFC99.5 of 1.98

Notebook: O=C1CSC(c2ccccc2Cl)N1c1nc(C23CC4CC(CC(C4)C2)C3)cs1 (centres undefined) , log10 of MFC99.5 read as 0.06

Field log10 of MFC99.5 (entry O=C1CSC(c2cccc(F)c2)N1c1nc(C23CC4CC(CC(C4)C2)C3)cs1 (centres undefined) ) reads -0.85

Memo: O=C1CSC(c2cccc(Cl)c2Cl)N1c1nc(C23CC4CC(CC(C4)C2)C3)cs1 (centres undefined) , reported log10 of MFC99.5: -1.22
